Source: patent US20100130424A1

- testedTarget: T1, human CRH receptor type 2 (human, UniProt Q13324 1-411)
- T1 sequence (looked up): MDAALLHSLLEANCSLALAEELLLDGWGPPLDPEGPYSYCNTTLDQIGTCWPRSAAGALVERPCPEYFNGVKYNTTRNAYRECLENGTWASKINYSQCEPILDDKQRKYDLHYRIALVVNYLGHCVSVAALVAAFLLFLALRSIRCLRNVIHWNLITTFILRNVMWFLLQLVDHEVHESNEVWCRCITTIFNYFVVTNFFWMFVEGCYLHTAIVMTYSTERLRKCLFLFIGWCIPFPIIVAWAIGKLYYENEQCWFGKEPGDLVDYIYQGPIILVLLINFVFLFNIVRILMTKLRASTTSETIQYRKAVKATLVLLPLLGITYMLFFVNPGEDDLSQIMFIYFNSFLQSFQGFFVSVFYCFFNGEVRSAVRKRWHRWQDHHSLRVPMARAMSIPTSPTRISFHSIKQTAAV
- procedureSummary: cell-based or functional assay
measuredProperty: pA50, cAMP

# binder, pA50, cAMP
records = [
    ("TKFTLSLDVPCNIMNLLFNIAKAKNLRAQAAANAHLMAQI (NES-PEG (about 20 kDa) on Cys 11; C-terminal amide) [Pegylated Cys-variant CRHR2 peptide agonist (NES linker, PEG about 20 kDa), SEQ ID NO: 65]", "~6.82 -log M"),
]

Entry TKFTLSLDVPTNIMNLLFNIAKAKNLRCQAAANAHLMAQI (NES-PEG MW2000 on Cys 28; C-terminal amide) [Pegylated Cys-variant CRHR2 peptide agonist (NES-PEG MW2000), SEQ ID NO: 95] ; pA50, cAMP = 9.31 -log M

Entry TKFTLCLDVPTNIMNLLFNIAKAKNLRAQAAANAHLMAQI (NES-PEG (about 20 kDa) on Cys 6; C-terminal amide) [Pegylated Cys-variant CRHR2 peptide agonist (NES linker, PEG about 20 kDa), SEQ ID NO: 60] ; pA50, cAMP = ~6.32 -log M
